// provenance: patent US12447153B2

- target: ErbB2 with Exon 20 YVMA insertion (HER2-YVMA) (Homo sapiens (Human), UniProt P04626, INS775YVMA)
- Sequence (P04626 other isoform, or with tags, fused parts or gaps ins YVMA behind 775): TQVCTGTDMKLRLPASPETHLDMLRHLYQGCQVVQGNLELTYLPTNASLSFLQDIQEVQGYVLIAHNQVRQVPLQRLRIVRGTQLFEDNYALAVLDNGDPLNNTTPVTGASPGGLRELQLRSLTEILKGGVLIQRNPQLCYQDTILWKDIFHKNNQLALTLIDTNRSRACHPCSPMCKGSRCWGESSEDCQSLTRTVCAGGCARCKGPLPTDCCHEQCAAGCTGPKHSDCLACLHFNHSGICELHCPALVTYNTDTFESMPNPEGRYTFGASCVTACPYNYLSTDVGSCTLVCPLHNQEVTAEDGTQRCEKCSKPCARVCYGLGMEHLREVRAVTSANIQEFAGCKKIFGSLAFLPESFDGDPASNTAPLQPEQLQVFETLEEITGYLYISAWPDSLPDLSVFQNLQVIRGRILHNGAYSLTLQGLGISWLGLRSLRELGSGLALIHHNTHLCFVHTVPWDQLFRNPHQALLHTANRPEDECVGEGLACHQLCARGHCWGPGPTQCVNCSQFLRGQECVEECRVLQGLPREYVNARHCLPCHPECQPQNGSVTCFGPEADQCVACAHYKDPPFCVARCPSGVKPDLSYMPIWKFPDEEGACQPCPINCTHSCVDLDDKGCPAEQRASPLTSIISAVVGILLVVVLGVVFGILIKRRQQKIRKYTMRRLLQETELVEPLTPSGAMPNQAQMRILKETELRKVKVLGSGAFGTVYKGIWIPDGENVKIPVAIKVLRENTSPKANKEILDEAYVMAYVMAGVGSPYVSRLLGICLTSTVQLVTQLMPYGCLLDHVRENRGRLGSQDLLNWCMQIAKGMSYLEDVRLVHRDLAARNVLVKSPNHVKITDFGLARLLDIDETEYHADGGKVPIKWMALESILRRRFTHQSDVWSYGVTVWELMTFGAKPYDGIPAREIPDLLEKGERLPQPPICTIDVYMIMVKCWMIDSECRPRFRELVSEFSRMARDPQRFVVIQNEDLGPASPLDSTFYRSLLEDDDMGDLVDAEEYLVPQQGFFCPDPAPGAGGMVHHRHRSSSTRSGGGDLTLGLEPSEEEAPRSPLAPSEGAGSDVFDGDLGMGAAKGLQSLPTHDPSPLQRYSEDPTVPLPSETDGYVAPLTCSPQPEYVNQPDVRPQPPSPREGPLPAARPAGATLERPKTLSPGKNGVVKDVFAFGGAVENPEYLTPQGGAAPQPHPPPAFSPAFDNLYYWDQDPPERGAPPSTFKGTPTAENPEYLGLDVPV
- assay notes: Cellular Phosphorylation Assay, Assay 4 (constitutive ErbB2 phosphorylation, NIH 3T3 cells)
- Type: cell-based
- condition summary: ErbB2 YVMA phosphorylation
result type: IC50 (nM)
The reply should be a number in nM, with the unit left off.

{"columns": ["compound", "measured result"],
 "data": [
  ["C=CC(=O)N1[C@H](C)CN(c2ccc3ncnc(Nc4ccc(Oc5ccc6c(c5)ncn6C)c(C)c4F)c3n2)C[C@@H]1C", 82.8]
]}

Suppose we examine the compound C=CC(=O)N1CCC(Oc2ccc3ncnc(Nc4ccc(Oc5ccn6ncnc6c5)c(C)c4F)c3n2)CC1 ; what IC50 value has been reported? 14

Suppose we examine the compound C=CC(=O)N1CCN(c2ccc3ncnc(Nc4ccc(Oc5cnc6c(c5)ncn6C)c(C)c4F)c3n2)C[C@@H]1C1CC1 ; what IC50 value has been reported? 25.1

Suppose we examine the compound C=CC(=O)N1CCCN(c2ccc3ncnc(Nc4ccc(Oc5ccn6ncnc6c5)c(Cl)c4)c3n2)CC1 ; what IC50 value has been reported? 35.2

Suppose we examine the compound C=CC(=O)N1CCC(Oc2ccc3ncnc(Nc4ccc(Oc5cnn6c(C)cnc6c5)c(C)c4F)c3n2)CC1 ; what IC50 value has been reported? 50.8

Suppose we examine the compound C=CC(=O)N1[C@@H]2CC[C@H]1C[C@@H](c1ccc3ncnc(Nc4cc(C)c(Oc5ccn6ncnc6c5)cc4F)c3n1)C2 ; what IC50 value has been reported? 115

Suppose we examine the compound C=CC(=O)N1CCCC(c2ccc3ncnc(Nc4ccc(Oc5ccn6ncnc6c5)c(C)c4F)c3n2)C1 (stereo not drawn) ; what IC50 value has been reported? 17

Suppose we examine the compound C=CC(=O)N1C[C@@H]2C[C@H]1CN2c1ccc2ncnc(Nc3cc(Cl)c(Oc4ccn5ncnc5c4)cc3F)c2n1 ; what IC50 value has been reported? 4.1

Suppose we examine the compound C=CC(=O)N1CCN(c2ccc3ncnc(Nc4ccc(Oc5ccn6ncnc6c5)c(Cl)c4)c3n2)CC1(C)C ; what IC50 value has been reported? 5.7

Suppose we examine the compound C=CC(=O)N1[C@@H]2CC[C@H]1CC(c1ccc3ncnc(Nc4cc(C)c(Oc5ccc6c(c5)ncn6C)cc4F)c3n1)C2 (mixture of isomers) ; what IC50 value has been reported? 19.9

Suppose we examine the compound CC#CC(=O)N1[C@@H]2CC[C@H]1C[C@@H](c1ccc3ncnc(Nc4cc(C)c(Oc5ccn6ncnc6c5)cc4F)c3n1)C2 ; what IC50 value has been reported? 328

Suppose we examine the compound C=CC(=O)N1CC(c2ccc3ncnc(Nc4ccc(Oc5ccc6c(c5)ncn6C)c(C)c4F)c3n2)CCC12CC2 (stereo not drawn) ; what IC50 value has been reported? 35.2

Suppose we examine the compound C=CC(=O)N1CCN(c2ccc3ncnc(Nc4ccc(Oc5ccn6ncnc6c5)c(Cl)c4F)c3n2)C[C@H]1C ; what IC50 value has been reported? 2.8

Suppose we examine the compound C=CC(=O)N1CCN(c2nc3c(Nc4ccc(Oc5ccn6ncnc6c5)c(C)c4F)ncnc3cc2Cl)C[C@@H]1C ; what IC50 value has been reported? 192

Suppose we examine the compound C=CC(=O)N1CCCN(c2ccc3ncnc(Nc4ccc(Oc5ccn6ncnc6c5)c(C)c4F)c3n2)CC1 ; what IC50 value has been reported? 66.1

Suppose we examine the compound C=CC(=O)N1C[C@H]2CC[C@@H]1C[C@H]2c1ccc2ncnc(Nc3ccc(Oc4ccn5ncnc5c4)c(C)c3F)c2n1 (racemic) ; what IC50 value has been reported? 32.7

Suppose we examine the compound C=CC(=O)N1CCN(c2ccc3ncnc(Nc4ccc(Oc5ccc6c(c5)ncn6C)c(C)c4)c3n2)CC1(C)C ; what IC50 value has been reported? 4.6

Suppose we examine the compound C=CC(=O)N1C[C@@H]2C[C@H]1CN2c1ccc2ncnc(Nc3ccc(Oc4ccn5ncnc5c4)c(C)c3F)c2n1 ; what IC50 value has been reported? 5

Suppose we examine the compound C=CC(=O)N1CCC(Oc2ccc3ncnc(Nc4cc(Cl)c(Oc5ccc6cn(C)nc6c5)cc4F)c3n2)CC1 ; what IC50 value has been reported? 392

Suppose we examine the compound C=CC(=O)N1CCN(c2ccc3ncnc(Nc4ccc(Oc5ccn6ncnc6c5)c(C)c4F)c3n2)CC1 ; what IC50 value has been reported? 6.8

Suppose we examine the compound CC#CC(=O)N1CCN(c2ccc3ncnc(Nc4ccc(Oc5ccn6ncnc6c5)c(Cl)c4F)c3n2)CC12CC2 ; what IC50 value has been reported? 35.3

Suppose we examine the compound C=CC(=O)N1C[C@H]2CN(c3ccc4ncnc(Nc5ccc(Oc6ccc7c(c6)ncn7C)c(C)c5)c4n3)C[C@H]21 ; what IC50 value has been reported? 10.2

Suppose we examine the compound CC#CC(=O)N1C2CCC1CN(c1ccc3ncnc(Nc4ccc(Oc5ccn6ncnc6c5)c(C)c4F)c3n1)C2 ; what IC50 value has been reported? 92.4
